EXPERIMENTAL_DETAILS: pKa values from the literature
EXPERIMENTAL_SETUP: acetonitrile/water (3/1) and methanol/water (3/1)
TEST_READOUT: pKa

Entry CC(C(=O)O)c1cccc(C(=O)c2ccccc2)c1 (stereo not shown) : reported pKa = ? ~5.5
